# Target Under Test: Ephrin type-B receptor 4 (Homo sapiens, UniProt P54760)
# Sequence (P54760 whole entry, the tested form may be a part): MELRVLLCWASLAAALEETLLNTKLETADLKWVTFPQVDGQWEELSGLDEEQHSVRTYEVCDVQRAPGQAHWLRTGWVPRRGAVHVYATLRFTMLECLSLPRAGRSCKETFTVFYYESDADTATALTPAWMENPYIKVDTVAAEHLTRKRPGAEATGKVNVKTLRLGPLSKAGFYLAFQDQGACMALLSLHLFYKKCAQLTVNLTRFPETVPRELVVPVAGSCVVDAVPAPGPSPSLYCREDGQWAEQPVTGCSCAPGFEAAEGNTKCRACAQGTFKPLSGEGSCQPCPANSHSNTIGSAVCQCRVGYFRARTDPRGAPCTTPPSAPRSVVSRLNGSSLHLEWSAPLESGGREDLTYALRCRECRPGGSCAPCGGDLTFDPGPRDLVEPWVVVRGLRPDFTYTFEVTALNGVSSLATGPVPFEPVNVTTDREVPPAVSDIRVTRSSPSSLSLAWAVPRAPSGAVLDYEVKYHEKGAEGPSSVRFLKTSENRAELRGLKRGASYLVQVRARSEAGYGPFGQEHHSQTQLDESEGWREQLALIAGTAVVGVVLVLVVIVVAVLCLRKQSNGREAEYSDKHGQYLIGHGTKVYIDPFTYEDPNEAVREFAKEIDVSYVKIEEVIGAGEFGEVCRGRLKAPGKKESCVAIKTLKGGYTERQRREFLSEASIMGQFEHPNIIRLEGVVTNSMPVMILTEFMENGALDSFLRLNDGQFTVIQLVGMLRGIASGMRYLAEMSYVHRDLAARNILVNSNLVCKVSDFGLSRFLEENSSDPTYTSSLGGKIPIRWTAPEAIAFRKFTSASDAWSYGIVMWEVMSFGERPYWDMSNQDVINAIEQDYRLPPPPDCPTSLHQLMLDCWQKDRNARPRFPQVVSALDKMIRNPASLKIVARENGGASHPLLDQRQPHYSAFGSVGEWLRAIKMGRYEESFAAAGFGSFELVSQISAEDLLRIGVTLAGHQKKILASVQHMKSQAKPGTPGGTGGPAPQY
# Test Name: Inhibition of recombinant human N-terminal His6-tagged EphB4 kinase domain (E605 to E890 residues) expressed in baculovirus using poly-AEKY as substrate after 150 mins in presence of gamma33P-ATP by liquid scintillation spectrometry
Measure: IC50

>>> result("CCN(CC)[C@H]1CO[C@H]2[C@@H]1OC[C@@H]2Oc1cc2ncnc(Nc3ccc(Br)c(Cl)c3)c2cc1OC")
"0.05 to 1 µM"

Need IC50 for each of these molecules.
1. COc1cc2c(Nc3ccc(Cl)c(Cl)c3)ncnc2cc1OCc1nc2c(s1)CN(C)CC2
2. COc1cc2c(Nc3ccc(F)c(Cl)c3)ncnc2cc1OCC1CN(C)CCO1 (stereo not given)
3. CCCCc1ccc(C(=O)N2CCOC(COc3cc4ncnc(Nc5ccc(Cl)c(Cl)c5)c4cc3OC)C2)cc1 (stereo not given)

**A:**
1. < 0.05 µM
2. 0.05 to 1 µM
3. 1 to 20 µM

Measured values drawn from ChEMBL document CHEMBL3882729 for this set.
